Cited source: patent US20110159019A1

- MEASURED_ON: Full-length human PKCθ (Homo sapiens, UniProt Q04759)
- Construct: Full-length human PKCθ (Carna Biosciences, final 31 ng/mL); purchased Carna Biosciences
- Sequence (Q04759 whole entry): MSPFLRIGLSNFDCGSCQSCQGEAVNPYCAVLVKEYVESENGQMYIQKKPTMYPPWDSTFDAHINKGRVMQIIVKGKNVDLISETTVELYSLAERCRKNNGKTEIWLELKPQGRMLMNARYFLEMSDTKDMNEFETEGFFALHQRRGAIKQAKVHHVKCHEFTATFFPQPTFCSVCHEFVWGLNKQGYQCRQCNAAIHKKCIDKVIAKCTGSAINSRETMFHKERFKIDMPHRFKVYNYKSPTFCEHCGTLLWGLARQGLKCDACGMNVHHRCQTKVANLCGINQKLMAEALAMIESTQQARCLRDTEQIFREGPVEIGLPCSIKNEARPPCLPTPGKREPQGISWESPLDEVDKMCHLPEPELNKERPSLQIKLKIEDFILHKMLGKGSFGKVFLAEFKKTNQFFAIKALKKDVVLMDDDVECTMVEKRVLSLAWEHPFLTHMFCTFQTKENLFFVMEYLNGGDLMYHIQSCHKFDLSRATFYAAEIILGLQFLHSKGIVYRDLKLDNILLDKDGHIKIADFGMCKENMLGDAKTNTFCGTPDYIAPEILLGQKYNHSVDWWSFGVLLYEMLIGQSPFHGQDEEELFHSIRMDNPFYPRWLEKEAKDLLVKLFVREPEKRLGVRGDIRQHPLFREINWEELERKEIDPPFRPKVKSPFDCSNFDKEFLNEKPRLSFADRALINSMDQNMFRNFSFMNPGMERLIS
- PROCEDURE_DETAILS: Measurement of human PKCθ enzyme inhibition activity (HTRF KinEASE S1 kit)
- Format: biochemical
- CONDITION_PARAMETERS: full-length human PKCθ, ATP 30 μM, HTRF; read-out: IC50 (nM), human PKCθ enzyme inhibition
VALUE_TYPE: IC50 (nM)
Kindly answer with a numeric value in nM, unit omitted.

Past entries and their recorded results:
N#Cc1cnc(NCc2ccccc2Cl)nc1NC[C@]12CC3C[C@H](C1)[C@@H](NC1CCN(C(=O)CO)CC1)[C@@H](C3)C2 [Example 205]	0.83
N#Cc1cnc(NCc2ccccc2Cl)nc1NC[C@]12CC3C[C@H](C1)[C@@H](NC[C@H]1CC[C@@H](O)CC1)[C@@H](C3)C2 (relative stereo) [Example 401]	0.65
COc1ccccc1CNc1ncc(C#N)c(NC[C@]23CC4C[C@H](C2)[C@@H](NCC[C@H](O)CO)[C@@H](C4)C3)n1 (relative stereo) [Example 195]	3.3
N[C@@H]1[C@@H]2CC3C[C@H]1C[C@@](CNc1nc(NCc4ccccc4OC(F)(F)F)ncc1[N+](=O)[O-])(C3)C2 (relative stereo) [Example 388]	3.3
CSc1ccccc1CNc1ncc(C#N)c(NC[C@]23CC4C[C@H](C2)[C@@H](NCC[C@H](O)CO)[C@@H](C4)C3)n1 (relative stereo) [Example 200]	0.28

*Q* I am curious: what IC50 value has been reported for N#Cc1cnc(NCc2ccccc2Cl)nc1NC[C@]12CC3C[C@H](C1)C(N1CCNCC1)[C@@H](C3)C2 (stereo partly drawn) [Example 319] ?
*A* 4

*Q* // IC50 lookup, key: N#Cc1cnc(NCc2ccccc2OC(F)(F)F)nc1NC[C@]12CC3C[C@H](C1)[C@@H](NC1CCC(N4CCC[C@H]4CO)CC1)[C@@H](C3)C2 (relative stereo) [Example 240]
*A* 0.064

*Q* Please look up its IC50: COc1ccc(Cl)c(CNc2ncc(C#N)c(NC[C@]34CC5C[C@H](C3)[C@@H](N)[C@@H](C5)C4)n2)c1 (relative stereo) [Example 150]
*A* 5.3

*Q* Give the measured IC50 of C[C@]1(O)CC[C@H](CN[C@@H]2[C@@H]3CC4C[C@H]2C[C@@](CNc2nc(NCc5ccccc5OC(F)(F)F)ncc2C#N)(C4)C3)CC1 (relative stereo) [Example 363] .
*A* 0.58

*Q* Endpoint output: IC50 of CC(Nc1ncc(C#N)c(NC[C@]23CC4C[C@H](C2)[C@@H](N)[C@@H](C4)C3)n1)c1ccccc1Cl (relative stereo) [Example 302] . Value?
*A* 14

*Q* Can you share its IC50? I mean this compound: CSc1ccccc1CNc1ncc(C#N)c(NC[C@]23CC4C[C@H](C2)[C@@H](N[C@H]2CC[C@H](O)CC2)[C@@H](C4)C3)n1 (relative stereo) [Example 43]
*A* 0.44

*Q* Which value of IC50 has been reported for N#Cc1cnc(NCc2ccccc2OC(F)(F)F)nc1NC[C@]12CC3C[C@H](C1)[C@@H](NC1CCOCC1)[C@@H](C3)C2 (relative stereo) [Example 74] in the records?
*A* 0.65

---

- MEASURED_ON: Cytochrome P450 (CYP3A4) (Homo sapiens)
- Construct: human liver microsome (0.1 mg protein/mL); from tissue; host or cells: human liver microsomes
- PROCEDURE_DETAILS: Measurement of cytochrome P450 (CYP3A4) enzyme inhibition activity in human liver microsome (inhibition tests I and II, midazolam substrate)
- Type: in vitro ADME
- CONDITION_PARAMETERS: inhibition test II: 5 μM test compound preincubated 30 minutes with human liver microsome and NADPH, then 2 μM midazolam 20 minutes; relative to test I
- Protocol: Test Method 3: Measurement of Cytochrome P450 (CYP3A4) Enzyme Inhibition Activity i) Inhibition Test I (Calculation of Remaining Rate I) […] Using a 96-well plate, 5 μM of a test compound and human liver microsome (0.1 mg protein/mL) were incubated at 37° C. for 30 minutes in a total amount of 145 μL of a 100 mM phosphate buffer (pH=7.4) containing 0.1 mM EDTA and 1 mM NADPH. […] Thereafter, the samples were analyzed by LC/MS/MS, and the remaining rate II was calculated using the following equation 2. […]
Reported II (%) Remaining Rate II is given for each of the following compounds.
Give the value in % but do not write % after it.

Worked set:
N#Cc1cnc(NCc2ccccc2Cl)nc1NC[C@]12CC3C[C@H](C1)[C@@H](NCC1CCN(CCO)CC1)[C@@H](C3)C2 (relative stereo)	90
N#Cc1cnc(NCc2ccccc2OC(F)(F)F)nc1NC[C@]12CC3C[C@H](C1)[C@@H](NCC1CCNCC1)[C@@H](C3)C2 (relative stereo)	95

*Q* Which II (%) Remaining Rate II value belongs to COc1ccccc1CNc1ncc(C#N)c(NC[C@]23CC4C[C@H](C2)[C@@H](NC2CCC(C)(O)CC2)[C@@H](C4)C3)n1 (single isomer, unassigned) ?
*A* 80

---

Readings of IC50 for the listed compounds
- MEASURED_ON: Full-length human PKCθ (Homo sapiens)
- Construct: Full-length human PKCθ (Carna Biosciences, final 31 ng/mL); purchased Carna Biosciences
- PROCEDURE_DETAILS: Measurement of human PKCθ enzyme inhibition activity (HTRF KinEASE S1 kit)
- Format: biochemical
- CONDITION_PARAMETERS: full-length human PKCθ, ATP 30 μM, HTRF; read-out: IC50 (nM), human PKCθ enzyme inhibition
Value expressed in nM; do not type the unit.

N#Cc1cnc(NCc2ccccc2Cl)nc1NC[C@]12CC3C[C@H](C1)[C@@H](N[C@H]1CC[C@H](O)CC1)[C@@H](C3)C2 (relative stereo)	1.1
N#Cc1cnc(NCc2ccccc2OC(F)(F)F)nc1NC[C@]12CC3C[C@H](C1)[C@@H](N[C@H]1CC[C@@H](N)CC1)[C@@H](C3)C2	0.065
N#Cc1cnc(NCc2ccccc2OC(F)(F)F)nc1NC[C@]12CC3C[C@H](C1)[C@@H](N1CCC(O)C1)[C@@H](C3)C2 (stereo partly drawn)	1

*Q* // IC50 lookup, key: N#Cc1cnc(NCc2ccccc2Cl)nc1NC[C@]12CC3C[C@H](C1)C(N1CCC(N)CC1)[C@@H](C3)C2 (relative stereo)
*A* 0.86

*Q* Please look up its IC50: CSc1ncccc1CNc1ncc(C#N)c(NC[C@]23CC4C[C@H](C2)[C@@H](NC[C@H]2CC[C@H](O)CC2)[C@@H](C4)C3)n1 (relative stereo)
*A* 0.48

*Q* Which IC50 is listed for N#Cc1cnc(Nc2cccc(Br)c2)nc1NC[C@]12CC3C[C@H](C1)[C@@H](N)[C@@H](C3)C2 ?
*A* 3.8

*Q* Requested field: IC50. Item: N#Cc1cnc(NCc2ccccc2Cl)nc1NC[C@]12CC3C[C@H](C1)[C@@H](NCCCO)[C@@H](C3)C2 (relative stereo)
*A* 1.3

---

II (%) Remaining Rate II values by entry
- MEASURED_ON: Cytochrome P450 (CYP3A4) (Homo sapiens, UniProt P08684)
- Construct: human liver microsome (0.1 mg protein/mL); from tissue; host or cells: human liver microsomes
- Sequence (P08684 whole entry): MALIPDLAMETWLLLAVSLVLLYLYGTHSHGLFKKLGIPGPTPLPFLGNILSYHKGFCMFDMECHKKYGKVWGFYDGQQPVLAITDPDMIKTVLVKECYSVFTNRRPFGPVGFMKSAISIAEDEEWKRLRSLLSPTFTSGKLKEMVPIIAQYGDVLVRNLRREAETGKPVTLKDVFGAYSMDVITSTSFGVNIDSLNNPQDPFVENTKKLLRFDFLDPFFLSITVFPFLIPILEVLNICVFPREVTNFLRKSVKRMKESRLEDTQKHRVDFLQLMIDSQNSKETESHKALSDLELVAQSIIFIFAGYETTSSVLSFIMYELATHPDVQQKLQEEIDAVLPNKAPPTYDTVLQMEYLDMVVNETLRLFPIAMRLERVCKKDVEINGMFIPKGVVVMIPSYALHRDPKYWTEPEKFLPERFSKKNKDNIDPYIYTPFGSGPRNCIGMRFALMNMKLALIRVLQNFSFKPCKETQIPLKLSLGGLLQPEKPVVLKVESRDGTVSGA
- PROCEDURE_DETAILS: Measurement of cytochrome P450 (CYP3A4) enzyme inhibition activity in human liver microsome (inhibition tests I and II, midazolam substrate)
- Format: in vitro ADME
- CONDITION_PARAMETERS: inhibition test II: 5 μM test compound preincubated 30 minutes with human liver microsome and NADPH, then 2 μM midazolam 20 minutes; relative to test I
Enter your answer as a number in %; do not include the unit.

*Q* Reported II (%) Remaining Rate II, compound COCCN1CCC(N[C@@H]2[C@@H]3CC4C[C@H]2C[C@@](CNc2nc(NCc5ccccc5Cl)ncc2C#N)(C4)C3)CC1 (relative stereo) : ____
*A* 94

*Q* Request the reported II (%) Remaining Rate II associated with N#Cc1cnc(NCc2ccccc2Cl)nc1NC[C@]12CC3C[C@H](C1)[C@@H](N[C@H]1CC[C@@H](NC4CCOCC4)CC1)[C@@H](C3)C2 (relative stereo)
*A* 91

*Q* Field request: II (%) Remaining Rate II | item: N#Cc1cnc(NCc2ccccc2OC(F)(F)F)nc1NC[C@]12CC3C[C@H](C1)[C@@H](N[C@H]1CC[C@@H](N)CC1)[C@@H](C3)C2
*A* 88

*Q* Return reported II (%) Remaining Rate II; argument: CSc1ncccc1CNc1ncc(C#N)c(NC[C@]23CC4C[C@H](C2)[C@@H](NC[C@H]2CC[C@H](O)CC2)[C@@H](C4)C3)n1 (relative stereo)
*A* 84

*Q* Please look up its II (%) Remaining Rate II: COc1ncccc1CNc1ncc(C#N)c(NC[C@]23CC4C[C@H](C2)[C@@H](NC2CCC(O)CC2)[C@@H](C4)C3)n1 (relative stereo)
*A* 80
